Values compiled from patent US20210323977A1.

Molecular target: human TLR7 (Homo sapiens)
Sequence (Q9NYK1 27-1049): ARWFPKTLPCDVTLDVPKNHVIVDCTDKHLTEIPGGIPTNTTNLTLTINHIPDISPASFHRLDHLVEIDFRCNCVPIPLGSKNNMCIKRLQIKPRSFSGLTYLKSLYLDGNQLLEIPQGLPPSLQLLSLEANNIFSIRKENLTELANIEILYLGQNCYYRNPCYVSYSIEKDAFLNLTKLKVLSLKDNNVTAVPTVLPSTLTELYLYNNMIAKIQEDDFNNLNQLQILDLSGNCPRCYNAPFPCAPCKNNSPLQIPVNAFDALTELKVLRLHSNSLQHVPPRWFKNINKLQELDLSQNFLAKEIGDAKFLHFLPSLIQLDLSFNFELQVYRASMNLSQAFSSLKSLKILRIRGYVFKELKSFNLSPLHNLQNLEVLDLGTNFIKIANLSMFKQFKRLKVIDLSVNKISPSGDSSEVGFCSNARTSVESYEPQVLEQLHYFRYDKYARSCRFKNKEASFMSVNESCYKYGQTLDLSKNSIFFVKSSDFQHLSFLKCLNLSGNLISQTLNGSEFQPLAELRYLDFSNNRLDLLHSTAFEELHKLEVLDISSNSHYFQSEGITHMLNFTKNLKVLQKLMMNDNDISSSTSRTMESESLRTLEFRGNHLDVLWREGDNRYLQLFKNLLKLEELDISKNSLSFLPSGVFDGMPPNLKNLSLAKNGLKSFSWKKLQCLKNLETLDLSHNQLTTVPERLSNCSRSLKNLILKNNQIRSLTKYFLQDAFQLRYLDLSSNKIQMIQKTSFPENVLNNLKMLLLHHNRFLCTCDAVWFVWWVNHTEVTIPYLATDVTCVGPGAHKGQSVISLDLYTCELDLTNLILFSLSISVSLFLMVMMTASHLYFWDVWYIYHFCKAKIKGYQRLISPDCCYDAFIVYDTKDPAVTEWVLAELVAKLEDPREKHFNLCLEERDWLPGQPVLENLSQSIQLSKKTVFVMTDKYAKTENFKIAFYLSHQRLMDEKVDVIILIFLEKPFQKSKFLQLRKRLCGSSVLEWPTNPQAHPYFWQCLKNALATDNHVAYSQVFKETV
Test: HEK293-Blue-hTLR-7 cells assay
Details: HEK293-Blue-hTLR7 cells, SEAP reporter, R848 stimulation, 20 hrs
property: IC50 (nM)
Give your result in nM as a bare value.

Reported IC50 for C[C@@H]1CN(c2ccc(C#N)c3ncccc23)C[C@H]1C(=O)NC1CCCNCC1 (single isomer, unassigned) [Example 52A] was 203

Reported IC50 for N#Cc1ccc(N2CC(C(=O)NCC3CNCCO3)C3(CC3)C2)c2nccnc12 (centres unmarked) was 18

Reported IC50 for C[C@@H]1CN(c2ccc(C#N)c3ncccc23)C[C@H]1C(=O)NC1CCCNCC1 (single isomer, unassigned) [Example 52B] was 219

Reported IC50 for O=C(NC1CC2CCCC(C1)N2)C1CN(c2ccc(C(F)(F)F)c3nccnc23)CC12CC2 (centres unmarked) was 12

Reported IC50 for `C[C@H]1CN(c2ccc(C#N)c3ncccc23)C[C@@H]1C(=O)NC1CCN(C)CC1` was 22

Reported IC50 for NC1CC(NC(=O)C2CN(c3ccc(C(F)(F)F)c4nccnc34)CC23CC3)C1 (centres unmarked) was 59

Reported IC50 for C[C@@H]1CN(c2ccc(C#N)c3ncccc23)C[C@H]1C(=O)N1CCC2(CCNC2)C1 (relative stereo) was 226

Reported IC50 for CC(C)[C@@H]1CN(c2ccc(C#N)c3ncccc23)C[C@H]1C(=O)NC1CCN(C)CC1 (relative stereo) was 59

Reported IC50 for CN1CCC(NC(=O)[C@@H]2CN(c3ccc(C#N)c4ncccc34)C[C@H]2C2CC2)CC1 (relative stereo) was 20

Reported IC50 for `C[C@@H]1CN(c2ccc(C(F)(F)F)c3nccnc23)C[C@H]1C(=O)NC1CCN(C)CC1` was 33

Reported IC50 for `C[C@H]1CN(c2ccc(C#N)c3nccnc23)C[C@@H]1C(=O)NC1CCN(C2CCNCC2)CC1` was 492

Reported IC50 for O=C(NC1CC2COCC(C1)N2)C1CN(c2ccc(C(F)(F)F)c3nccnc23)CC12CC2 (centres unmarked) was 9

Reported IC50 for CN(C)CC1CC(NC(=O)C2CN(c3ccc(C(F)(F)F)c4nccnc34)CC23CC3)C1 (centres unmarked) was 36

Reported IC50 for O=C(NC1CC2(CCNCC2)C1)C1CN(c2ccc(C(F)(F)F)c3nccnc23)CC12CC2 (centres unmarked) was 46

Reported IC50 for O=C(NC1CC2CNCC2C1)C1CN(c2ccc(C(F)(F)F)c3nccnc23)CC12CC2 (centres unmarked) was 28

Reported IC50 for `CN1CCC(NC(=O)[C@H]2CN(c3ccc(C#N)c4nccnc34)C[C@@H]2C(F)(F)F)CC1` was 3

Reported IC50 for CN1CCC(NC(=O)[C@@H]2CN(c3ccc(C#N)c4ncccc34)C[C@H]2C(F)F)CC1 (relative stereo) was 79

Reported IC50 for N#Cc1ccc(N2CC(C(=O)NC[C@H]3CNCCO3)C3(CC3)C2)c2nccnc12 (single isomer, unassigned) [Example 70B] was 233

Reported IC50 for C[C@@H]1CN(c2ccc(C#N)c3ncccc23)C[C@H]1C(=O)N1CCC2(CCNCC2)CC1 (relative stereo) was 44

Reported IC50 for N#Cc1ccc(N2CC(C(=O)NC[C@@H]3CNCCO3)C3(CC3)C2)c2nccnc12 (single isomer, unassigned) [Example 71B] was 202

Reported IC50 for CN1CCC(NC(=O)C2CN(c3ccc(C#N)c4ncccc34)CC23CC3)CC1 (single isomer, unassigned) [Example 41A] was 79

Reported IC50 for CN1CCC(NC(=O)[C@@H]2CN(c3ccc(C#N)c4ncccc34)C[C@H]2C(F)(F)F)CC1 (relative stereo) was 22

Reported IC50 for `N#Cc1ccc(N2C[C@H](C(=O)NC3CCN(C4CCNCC4)CC3)[C@@H](C(F)(F)F)C2)c2nccnc12` was 55

Reported IC50 for CN1CCC(NC(=O)C2CN(c3ccc(C#N)c4nccnc34)CC23CC3)CC1 (single isomer, unassigned) [Example 7A] was 4

Reported IC50 for CN1CCC(NC(=O)C2CN(c3ccc(C#N)c4ncccc34)CC2C(F)(F)F)CC1 (centres unmarked) was 23

Reported IC50 for O=C(NC1C2CCCC1CNC2)C1CN(c2ccc(C(F)(F)F)c3nccnc23)CC12CC2 (centres unmarked) was 10

Reported IC50 for `C[C@@H]1CN(c2ccc(C#N)c3ncccc23)C[C@H]1C(=O)N[C@H]1CNC[C@H]1F` was 282

Reported IC50 for N#Cc1ccc(N2CC(C(=O)NC3CCCNCC3)C(C(F)(F)F)C2)c2cccnc12 (single isomer, unassigned) [Example 30B] was 50

Reported IC50 for NC1CC2(C1)CC(NC(=O)C1CN(c3ccc(C(F)(F)F)c4nccnc34)CC13CC3)C2 (centres unmarked) was 28

###

Target: human TLR7 (Homo sapiens, UniProt Q9NYK1)
Test: HEK293-Blue-hTLR-7 cells assay
Conditions: HEK293-Blue-hTLR7 cells, SEAP reporter, R848 stimulation, 20 hrs
property: pIC50
Convention used: pIC50 is expressed as -log10 of the molar concentration.

Reported pIC50 for C[C@@H]1CN(c2ccc(C#N)c3ncccc23)C[C@H]1C(=O)NC1CCN(C)CC1 (relative stereo) was 7.41

Reported pIC50 for N#Cc1ccc(N2CC(C(=O)NC[C@@H]3CNCCO3)C3(CC3)C2)c2nccnc12 (single isomer, unassigned) [Example 71A] was 7.68

Reported pIC50 for CN1CC(NC(=O)C2CN(c3ccc(C(F)(F)F)c4nccnc34)CC23CC3)C2(CC2)C1 (stereo not shown) was 7.60

Reported pIC50 for CN1CCC(NC(=O)C2CN(c3ccc(C(F)(F)F)c4nccnc34)CC23CC3)CC1 (stereo not shown) was 7.89

Reported pIC50 for NC1CC(CNC(=O)C2CN(c3ccc(C(F)(F)F)c4nccnc34)CC23CC3)C1 (stereo not shown) was 7.39

Reported pIC50 for `C[C@H]1CN(c2ccc(C(F)(F)F)c3nccnc23)C[C@@H]1C(=O)NC1CCN(C)CC1` was 8.10

Reported pIC50 for O=C(NC1CC2CNCC(C2)C1)C1CN(c2ccc(C(F)(F)F)c3nccnc23)CC12CC2 (stereo not shown) was 7.68

###

Assign pIC50 to each entry below.
Biological target: human TLR7 (Homo sapiens, UniProt Q9NYK1)
Assay: HEK293-Blue-hTLR-7 cells assay
Conditions: HEK293-Blue-hTLR7 cells, SEAP reporter, R848 stimulation, 20 hrs
Convention used: pIC50 is expressed as -log10 of the molar concentration.

Item: N#Cc1ccc(N2CC(C(=O)NC[C@H]3CNCCO3)C3(CC3)C2)c2nccnc12 (single isomer, unassigned) [Example 70A] | System: human TLR7 (Homo sapiens, UniProt Q9NYK1) | pIC50: 7.72

Item: CN1CCC(NC(=O)[C@@H]2CN(c3ccc(Cl)c4ncccc34)C[C@H]2C(F)(F)F)CC1 (relative stereo) [Example 46] | System: human TLR7 (Homo sapiens, UniProt Q9NYK1) | pIC50: 6.97

Item: C[C@H]1CN(c2ccc(C#N)c3nccnc23)C[C@@H]1C(=O)NC1CCN(C)CC1 [Example 3] | System: human TLR7 (Homo sapiens, UniProt Q9NYK1) | pIC50: 8.40

Item: N#Cc1ccc(N2C[C@@H](C(F)(F)F)[C@H](C(=O)N[C@H]3CNC[C@H]3F)C2)c2cccnc12 [Example 47] | System: human TLR7 (Homo sapiens, UniProt Q9NYK1) | pIC50: 6.91
